- testDescription: Toxicity liver stage against HepG2, at 10uM
- Type: cell-based
- Design: test concentration 10 uM, cell line HepG2-A16-CD81EGFP
- conditionsUsed: human, HepG2-A16-CD81EGFP cells; read-out: INHIBITION
experimentalEndpoint: cytotoxicity at 10 µM (%)
I only need the number, in %, no unit after it.

compound | unitAnnotation | cytotoxicity at 10 µM
CCCc1cc(NC(=O)c2cc(N3CCNC3=O)c(F)cc2F)n[nH]1 | % | 12.3

Ask: Give recorded cytotoxicity at 10 µM. "CCn1nc2c(cc1=O)CN(Cc1cc(C)on1)CC2"
Reply: 0.341

Ask: Specify reported cytotoxicity at 10 µM for the compound shown: "COCc1nc(CNC2CCSCC2)no1"
Reply: -9.87

Ask: Fill in cytotoxicity at 10 µM for record "CC1=C[C@@H](CN2CCC(CO)CC2)[C@H](C(C)C)C[C@H]1Cc1nnc(C)o1"
Reply: 8.24

Ask: Consider the compound Cc1cn2c(n1)CCC(NC(=O)CNS(C)(=O)=O)C2 (stereo unspecified) and give its recorded cytotoxicity at 10 µM.
Reply: -9.84

Ask: Complete the entry with cytotoxicity at 10 µM for "CN(C)Cc1nc(C(C)(C)NC(=O)c2cccc3ccccc23)no1"
Reply: -1.8

Ask: Complete the entry with cytotoxicity at 10 µM for CC(O)CN1CCC(CN(C)CC(=O)NC(C)C)CC1 (stereo unspecified)
Reply: -2.32

Ask: # return recorded cytotoxicity at 10 µM for input CCCN1CCCn2nc(CNC(=O)CC(C)n3ccnc3C)cc2C1 (stereo unspecified)
Reply: -9.4

Ask: Write down cytotoxicity at 10 µM measured for item COc1ccc(CCC(=O)NC2CCC(O)CC2)cc1OC (stereo unspecified)
Reply: -5.26

Ask: For the compound "O=C1NC[C@H]2CN(Cc3ccccn3)CCN12" , give its reported cytotoxicity at 10 µM.
Reply: -2.4

Ask: Indicate the recorded cytotoxicity at 10 µM value for this compound: "O=C(CCn1ccc2ccc(Br)cc21)NCc1ccc(C(=O)O)cc1"
Reply: 13.4

###

- testDescription: Toxicity liver stage against HepG2, at 10uM
- Type: cell-based
- Parameters: test concentration 10 uM, cell line HepG2-A16-CD81EGFP
- conditionsUsed: human, HepG2-A16-CD81EGFP cells; read-out: INHIBITION
Listing of recorded cytotoxicity at 10 µM by entry.
Kindly answer with a numeric value in %, unit omitted.

compound | unitAnnotation | cytotoxicity at 10 µM
Cc1csc(CN2C[C@@H]3COC[C@]3(COCC(=O)N(C)C)C2)n1 | % | 0.851
Cc1nc(C)n(CCCNc2ncnc(C)c2C)n1 | % | -1.74

Ask: Return cytotoxicity at 10 µM for the following compound: CSc1ccc(CNC(c2ccccc2)c2nccn2C)cc1 (configuration not stated)
Reply: 2.39

Ask: Quick one: give measured cytotoxicity at 10 µM for "c1ccc(CN2CCC3(CC2)CCN(Cc2cccs2)C3)nc1"
Reply: 4.17

Ask: Return the recorded cytotoxicity at 10 µM value; entry: CCNc1ccnc(N2CCCC(CCOC)(C(=O)O)C2)n1 (configuration not stated)
Reply: 2.84

Ask: Tell me its cytotoxicity at 10 µM given c1csc(CN2CCc3ncnc(C4CCOC4)c3CC2)c1 (configuration not stated) as the entry.
Reply: 8.01

Ask: Hello, please tell me recorded cytotoxicity at 10 µM for this one: CCc1cc(CNC(=O)NCC(c2ccco2)N2CCCC2)[nH]n1 (configuration not stated)
Reply: 0.238

###

- testDescription: Toxicity liver stage against HepG2, at 10uM
- Assay type: cell-based
- Set-up: test concentration 10 uM, cell line HepG2-A16-CD81EGFP
- conditionsUsed: human, HepG2-A16-CD81EGFP cells; read-out: INHIBITION
We begin with a simple list: items and their reported cytotoxicity at 10 µM.
Number in %, nothing else.

Examples with their reported cytotoxicity at 10 µM follow.
compound | experimentalEndpoint | recordedNumber
CN(C)C(=O)c1cnc2n1CCN(Cc1ccc3c(c1)OCO3)C2 | cytotoxicity at 10 µM | -69
COCCN(CCOC)S(=O)(=O)N(C)Cc1ccncc1 | cytotoxicity at 10 µM | 8.07
Cc1nn(C)c(C)c1C1CCCN1C(=O)c1cc(C(N)=O)cs1 (stereo not given) | cytotoxicity at 10 µM | -2.53
COCCn1c(-c2cccc(OC)c2)cnc1NC(=O)NC(C)C | cytotoxicity at 10 µM | 4.04
O=C(Cc1ccon1)NC1CC2(CCC2)Oc2ccccc21 (stereo not given) | cytotoxicity at 10 µM | -6.71
CN1CCO[C@@H]2CN(S(=O)(=O)c3cccs3)CC[C@@H]2C1 | cytotoxicity at 10 µM | 11.7

Ask: Tell us which cytotoxicity at 10 µM value is on record for O=C1CC2(CCN(Cc3cccs3)C2)CN1c1cccc(F)c1 (stereo not given)
Reply: -148

Ask: Using the record for Cc1cc(NCC(=O)N(C)C(C)c2cccs2)c(C(N)=O)cc1F (stereo not given) , state its measured cytotoxicity at 10 µM.
Reply: -0.99

###

Reported cytotoxicity at 10 µM values follow for various molecules
- testDescription: Toxicity liver stage against HepG2, at 10uM
- Assay type: cell-based
- Set-up: test concentration 10 uM, cell line HepG2-A16-CD81EGFP
- conditionsUsed: human, HepG2-A16-CD81EGFP cells; read-out: INHIBITION
The number alone won't do; follow it with the unit.

A selection of reference data follows.
molecule | result
CN(C)C(=O)N1CCn2nc(CNC(=O)CCC(F)(F)F)cc2C1 | 5.6%
CCNc1ncc(C)c(-c2cnn(C)c2)n1 | -3.73%
Cc1oncc1C(=O)N1C[C@H](OCc2ccccn2)[C@H]2OCCC[C@H]21 | -0.385%
CN(Cc1ccccn1)C1CCCN(c2cccnn2)C1 (configuration not stated) | -13.4%
Cc1oc(-c2ccccc2)nc1C(=O)NC1=NCCS1 | 1.85%
O=C(c1ccsc1)N1CCc2c(COCc3ccncc3)cncc2C1 | -1.48%
COc1cc(C(=O)NC(CC(=O)O)c2cccs2)cc(OC)c1C (configuration not stated) | -19.1%
CCc1[nH]ncc1C(=O)N1CCCC(n2nc(C)nc2C)C1 (configuration not stated) | -6.02%
O=C(Nc1ccccc1OC1CCOC1)c1[nH]nc2c1CCCC2 (configuration not stated) | 0.271%
CCC(C)NC(=O)N1CCCn2cnc(CO)c2C1 (configuration not stated) | -9.35%

Ask: Assign cytotoxicity at 10 µM to the following record: CCOC(=O)N1CCCC2(CCN(Cc3ccccc3C#N)C2)C1 (configuration not stated)
Reply: 3.37%

###

- testDescription: Toxicity liver stage against HepG2, at 10uM
- Format: cell-based
- Set-up: test concentration 10 uM, cell line HepG2-A16-CD81EGFP
- conditionsUsed: human, HepG2-A16-CD81EGFP cells; read-out: INHIBITION
experimentalEndpoint: cytotoxicity at 10 µM (%)
The reply should be a number in %, with the unit left off.

molecule | experimentalEndpoint | unitAnnotation | recordedNumber
COc1cccc(C(=O)N2CCCC(c3cc(C)[nH]n3)C2)c1OC (stereo not drawn) | cytotoxicity at 10 µM | % | -7.4
CN(CC1CCCO1)C1CCN(CCc2ccccn2)CC1 (stereo not drawn) | cytotoxicity at 10 µM | % | -5.6
Cc1ccc(OCC2CCCN(C(=O)CN3CCOCC3)C2)cc1 (stereo not drawn) | cytotoxicity at 10 µM | % | -25.6
Cc1cc(N2CCC(O)(CN(C)C(=O)CCCN)C2)c2cnccc2n1 (stereo not drawn) | cytotoxicity at 10 µM | % | -8.65
CN1CCN(Cc2ccc(-c3ccc4[nH]ccc4c3)nc2)CC1 | cytotoxicity at 10 µM | % | -9.17
CNC(=O)c1cccnc1NCc1ccc(-n2cccn2)cc1 | cytotoxicity at 10 µM | % | 14.1

Ask: Identify measured cytotoxicity at 10 µM corresponding to "CN1[C@@H]2CC[C@H]1CN(c1nc(-c3ccncc3)nc3c1cnn3C)CC2"
Reply: 38.7

Ask: Consider the molecule Cc1nc(N2CCOCC2)nc2c1COCC21CCN(CC2CC2)C1 (stereo not drawn) and give its recorded cytotoxicity at 10 µM.
Reply: -116

Ask: Quick one: give measured cytotoxicity at 10 µM for "COc1c(NC(=O)N(C)CCOc2ccccc2)c(C)nn1C"
Reply: 19.2

Ask: Consider the molecule "O=C1CCC2(CCN(Cc3nccs3)CC2)N1Cc1ccccc1" and give its recorded cytotoxicity at 10 µM.
Reply: 1.54

Ask: Give a short answer stating reported cytotoxicity at 10 µM for "CN(C)CCCN(C)C1CCN(c2cccc(-c3cscn3)c2)CC1" .
Reply: -5

Ask: Annotate the molecule "CN(C)c1cc(C(=O)N2CCCN(Cc3cscn3)CC2)ccn1" with its measured cytotoxicity at 10 µM.
Reply: -15

Ask: Give recorded cytotoxicity at 10 µM. CC(=O)N1CCCC1C(=O)NCCOc1cc(C)cc(C)c1 (stereo not drawn)
Reply: -10.5

Values compiled from ChEMBL document CHEMBL4513216.
